SYSTEM NAME: human Fc (human)
EXPERIMENT NOTES: ELISA, negative control
QUANTITY NAME: optical density (OD)
Value expressed in OD; do not type the unit.

>>> measured_value("371_D05 (antibody, V domains shown) VH: EVQLLESGGGLVQPGGSLRLSCAASGFTFDDYGMHWVRQAPGKGLEWVSGINYNGGYTSYADSVKGRFTISRDNSKNTLYLQMNSLRAEDTAVYYCARAATWHDTHLDYWGQGTLVTVSS VL: DIQMTQSPSSLSASVGDRVTITCRASQSILTYLNWYQQKPGKAPKLLIYAASSLQSGVPSRFSGSGSGTDFTLTISSLQPEDFATYYCQQSYDSPLTFGGGTKVEIK")
0.339

optical density reading for 375_A04 (antibody, V domains shown) VH: EVQLLESGGGLVQPGGSLRLSCAASGFTFDSYGMNWVRQAPGKGLEWVAGINYNGGYKSYADSVKGRFTISRDNSKNTLYLQMNSLRAEDTAVYYCARAANWHDTALDYWGQGTLVTVSS VL: DIQMTQSPSSLSASVGDRVTITCRASQSILTYLNWYQQKPGKAPKLVIYYVNNLPSGVPSRFSGSGSGTDFTLTISSLQPEDFATYYCQQSYNSPLTFGGGTKVEIK : 0.177
